Target: HER2 on SK-BR-3 cells (Homo sapiens)
Test: cell binding, NIR fluorescence
Settings: live cells, 5% FBS, 1 h, live adherent cells (1e4/well), 0.01-10 uM 5'-IRD800 aptamer in growth medium with 5% FBS, 37 C (or 4 C), buffer salt and pH not stated
testReadout: Kd (nM)
Reply with just the number (in nM).

# sequence CCGCCCAAACACACGTAAACAGATGAGGAGCCGACACTGGG [HMAP7 (M7)] ; its Kd = 350
